# method notes: In vivo receptor-blocking study in nude mice bearing MDA-MB-231 xenografts
# condition context: mouse, stomach, total radioactivity; nude mice with MDA-MB-231 xenografts, 2 h p.i., co-injected ~100 µg unlabeled AngII peptide analog, mean ± SD; read-out: Stomach uptake, blocked
Where a SMILES comes first, the peptide text is derived from it. [ ]: non-standard residue; d: D form. The star is where a group is joined. DOTA = O=C(O)CN1CCN(CC(=O)O)CCN(CC(=O)*)CCN(CC(=O)O)CC1; βAla = NCCC(=O)O
readout label: tissue uptake at 2 h
Entry format: amount then unit.

Supply recorded tissue uptake at 2 h for CC[C@H](C)[C@H](NC(=O)[C@H](Cc1ccc(O)cc1)NC(=O)[C@@H](NC(=O)[C@H](CCCNC(=N)N)NC(=O)[C@H](CC(=O)O)NC(=O)CCNC(=O)[C@H](CCCCN)NC(=O)CN1CCN(CC(=O)O)CCN(CC(=O)O)CCN(CC(=O)O)CC1)C(C)C)C(=O)N[C@@H](Cc1c[nH]cn1)C(=O)N1CCC[C@H]1C(=O)N[C@@H](Cc1ccccc1)C(=O)N[C@@H](Cc1c[nH]c2ccccc12)C(=O)N[C@@H](CCCCN)C(=O)N[C@@H](Cc1ccc(O)cc1)C(N)=O [^68Ga-DOTA-AngII peptide, metal not drawn] ({DOTA}-K[βAla]DRVYIHPFWKY-NH2) here.
0.49 %ID/g

* * *

# System: AT1 receptor
# method notes: In vivo receptor-blocking study in nude mice bearing MDA-MB-231 xenografts
# condition context: mouse, tumor (MDA-MB-231 xenograft), total radioactivity; MDA-MB-231 tumor in nude mice, 2 h p.i., co-injected ~100 µg unlabeled AngII peptide analog, mean ± SD; read-out: Tumor uptake, blocked
Where a SMILES comes first, the peptide text is derived from it. [ ]: non-standard residue; d: D form. The star is where a group is joined. DOTA = O=C(O)CN1CCN(CC(=O)O)CCN(CC(=O)*)CCN(CC(=O)O)CC1; βAla = NCCC(=O)O
readout label: tissue uptake at 2 h (%ID/g)
Write the answer as a number in %ID/g, unit excluded.

Supply recorded tissue uptake at 2 h for CC[C@H](C)[C@H](NC(=O)[C@H](Cc1ccc(O)cc1)NC(=O)[C@@H](NC(=O)[C@H](CCCNC(=N)N)NC(=O)[C@H](CC(=O)O)NC(=O)CCNC(=O)[C@H](CCCCN)NC(=O)CN1CCN(CC(=O)O)CCN(CC(=O)O)CCN(CC(=O)O)CC1)C(C)C)C(=O)N[C@@H](Cc1c[nH]cn1)C(=O)N1CCC[C@H]1C(=O)N[C@@H](Cc1ccccc1)C(=O)N[C@@H](Cc1c[nH]c2ccccc12)C(=O)N[C@@H](CCCCN)C(=O)N[C@@H](Cc1ccc(O)cc1)C(N)=O [^68Ga-DOTA-AngII peptide, metal not drawn] ({DOTA}-K[βAla]DRVYIHPFWKY-NH2) here.
0.6

* * *

# method notes: In vivo tumor targeting and biodistribution in nude mice bearing MDA-MB-231 xenografts
# Set-up: species or system mouse
# condition context: mouse, spleen, total radioactivity; nude mice with MDA-MB-231 xenografts, 2 h p.i., mean ± SD, n = 4-6; read-out: Spleen uptake
Where a SMILES comes first, the peptide text is derived from it. [ ]: non-standard residue; d: D form. The star is where a group is joined. DOTA = O=C(O)CN1CCN(CC(=O)O)CCN(CC(=O)*)CCN(CC(=O)O)CC1; βAla = NCCC(=O)O
readout label: tissue uptake at 2 h
Entry format: amount then unit.

Supply recorded tissue uptake at 2 h for CC[C@H](C)[C@H](NC(=O)[C@H](Cc1ccc(O)cc1)NC(=O)[C@@H](NC(=O)[C@H](CCCNC(=N)N)NC(=O)[C@H](CC(=O)O)NC(=O)CCNC(=O)[C@H](CCCCN)NC(=O)CN1CCN(CC(=O)O)CCN(CC(=O)O)CCN(CC(=O)O)CC1)C(C)C)C(=O)N[C@@H](Cc1c[nH]cn1)C(=O)N1CCC[C@H]1C(=O)N[C@@H](Cc1ccccc1)C(=O)N[C@@H](Cc1c[nH]c2ccccc12)C(=O)N[C@@H](CCCCN)C(=O)N[C@@H](Cc1ccc(O)cc1)C(N)=O [^68Ga-DOTA-AngII peptide, metal not drawn] ({DOTA}-K[βAla]DRVYIHPFWKY-NH2) here.
0.24 %ID/g

* * *

# method notes: In vivo receptor-blocking study in nude mice bearing MDA-MB-231 xenografts
# condition context: mouse, lungs, intravenous, total radioactivity; nude mice with MDA-MB-231 xenografts, 2 h p.i., co-injected ~100 µg unlabeled AngII peptide analog, mean ± SD; read-out: Lungs uptake, blocked
Where a SMILES comes first, the peptide text is derived from it. [ ]: non-standard residue; d: D form. The star is where a group is joined. DOTA = O=C(O)CN1CCN(CC(=O)O)CCN(CC(=O)*)CCN(CC(=O)O)CC1; βAla = NCCC(=O)O
readout label: tissue uptake at 2 h
Entry format: amount then unit.

Supply recorded tissue uptake at 2 h for CC[C@H](C)[C@H](NC(=O)[C@H](Cc1ccc(O)cc1)NC(=O)[C@@H](NC(=O)[C@H](CCCNC(=N)N)NC(=O)[C@H](CC(=O)O)NC(=O)CCNC(=O)[C@H](CCCCN)NC(=O)CN1CCN(CC(=O)O)CCN(CC(=O)O)CCN(CC(=O)O)CC1)C(C)C)C(=O)N[C@@H](Cc1c[nH]cn1)C(=O)N1CCC[C@H]1C(=O)N[C@@H](Cc1ccccc1)C(=O)N[C@@H](Cc1c[nH]c2ccccc12)C(=O)N[C@@H](CCCCN)C(=O)N[C@@H](Cc1ccc(O)cc1)C(N)=O [^68Ga-DOTA-AngII peptide, metal not drawn] ({DOTA}-K[βAla]DRVYIHPFWKY-NH2) here.
0.89 %ID/g

* * *

# method notes: In vivo biodistribution in normal Balb/c mice
# Parameters: species or system mouse
# condition context: female, mouse, heart, iv, total radioactivity; normal Balb/c mice, 45 min p.i., i.v. tail vein, mean ± SD, n = 4-6; read-out: Heart uptake
Where a SMILES comes first, the peptide text is derived from it. [ ]: non-standard residue; d: D form. The star is where a group is joined. DOTA = O=C(O)CN1CCN(CC(=O)O)CCN(CC(=O)*)CCN(CC(=O)O)CC1; βAla = NCCC(=O)O
readout label: tissue uptake at 0.75 h (%ID/g)
Write the answer as a number in %ID/g, unit excluded.

Supply recorded tissue uptake at 0.75 h for CC[C@H](C)[C@H](NC(=O)[C@H](Cc1ccc(O)cc1)NC(=O)[C@@H](NC(=O)[C@H](CCCNC(=N)N)NC(=O)[C@H](CC(=O)O)NC(=O)CCNC(=O)[C@H](CCCCN)NC(=O)CN1CCN(CC(=O)O)CCN(CC(=O)O)CCN(CC(=O)O)CC1)C(C)C)C(=O)N[C@@H](Cc1c[nH]cn1)C(=O)N1CCC[C@H]1C(=O)N[C@@H](Cc1ccccc1)C(=O)N[C@@H](Cc1c[nH]c2ccccc12)C(=O)N[C@@H](CCCCN)C(=O)N[C@@H](Cc1ccc(O)cc1)C(N)=O [^68Ga-DOTA-AngII peptide, metal not drawn] ({DOTA}-K[βAla]DRVYIHPFWKY-NH2) here.
1.39

* * *

# method notes: In vivo biodistribution in normal Balb/c mice
# Set-up: species or system mouse
# condition context: female, mouse, stomach, iv, total radioactivity; normal Balb/c mice, 45 min p.i., i.v. tail vein, mean ± SD, n = 4-6; read-out: Stomach uptake
Where a SMILES comes first, the peptide text is derived from it. [ ]: non-standard residue; d: D form. The star is where a group is joined. DOTA = O=C(O)CN1CCN(CC(=O)O)CCN(CC(=O)*)CCN(CC(=O)O)CC1; βAla = NCCC(=O)O
readout label: tissue uptake at 0.75 h (%ID/g)
Write the answer as a number in %ID/g, unit excluded.

Supply recorded tissue uptake at 0.75 h for CC[C@H](C)[C@H](NC(=O)[C@H](Cc1ccc(O)cc1)NC(=O)[C@@H](NC(=O)[C@H](CCCNC(=N)N)NC(=O)[C@H](CC(=O)O)NC(=O)CCNC(=O)[C@H](CCCCN)NC(=O)CN1CCN(CC(=O)O)CCN(CC(=O)O)CCN(CC(=O)O)CC1)C(C)C)C(=O)N[C@@H](Cc1c[nH]cn1)C(=O)N1CCC[C@H]1C(=O)N[C@@H](Cc1ccccc1)C(=O)N[C@@H](Cc1c[nH]c2ccccc12)C(=O)N[C@@H](CCCCN)C(=O)N[C@@H](Cc1ccc(O)cc1)C(N)=O [^68Ga-DOTA-AngII peptide, metal not drawn] ({DOTA}-K[βAla]DRVYIHPFWKY-NH2) here.
1.06

* * *

# method notes: In vivo tumor targeting and biodistribution in nude mice bearing MDA-MB-231 xenografts
# Parameters: species or system mouse
# condition context: mouse, tumor / muscle, total radioactivity; nude mice with MDA-MB-231 xenografts, 2 h p.i.; read-out: Tumor/muscle uptake ratio
Where a SMILES comes first, the peptide text is derived from it. [ ]: non-standard residue; d: D form. The star is where a group is joined. DOTA = O=C(O)CN1CCN(CC(=O)O)CCN(CC(=O)*)CCN(CC(=O)O)CC1; βAla = NCCC(=O)O
readout label: tissue to tissue ratio at 2 h

Supply recorded tissue to tissue ratio at 2 h for CC[C@H](C)[C@H](NC(=O)[C@H](Cc1ccc(O)cc1)NC(=O)[C@@H](NC(=O)[C@H](CCCNC(=N)N)NC(=O)[C@H](CC(=O)O)NC(=O)CCNC(=O)[C@H](CCCCN)NC(=O)CN1CCN(CC(=O)O)CCN(CC(=O)O)CCN(CC(=O)O)CC1)C(C)C)C(=O)N[C@@H](Cc1c[nH]cn1)C(=O)N1CCC[C@H]1C(=O)N[C@@H](Cc1ccccc1)C(=O)N[C@@H](Cc1c[nH]c2ccccc12)C(=O)N[C@@H](CCCCN)C(=O)N[C@@H](Cc1ccc(O)cc1)C(N)=O [^68Ga-DOTA-AngII peptide, metal not drawn] ({DOTA}-K[βAla]DRVYIHPFWKY-NH2) here.
6.58
